Tested on: B16 mouse melanoma cells
Assay: Inhibition of pigment (melanin) production in B16 mouse melanoma cells
Type: cell-based
Details: 72 h, 1 µM, 3 days incubation, average of 4 wells, read-out: % of melanin inhibition in B16 mouse melanoma cells assay compared to control, normalised to protein levels
Quick rule: inhibition at 1 µM of at least 30% means Criterion met, below that means Criterion not met.

Below, 5 compounds whose answers are already recorded.
- Cc1ccc2[nH]c3c(c2c1)CCC/C3=N/N=C(\N)NCc1ccc(F)cc1: Criterion not met
- COc1ccc(CN/C(N)=N/N=C/c2cc3ccccc3o2)cc1: Criterion met
- N/C(=N\N=C\c1csc2ccccc12)NCc1ccc(F)cc1: Criterion met
- N/C(=N\N=C\c1ccc(-c2ccncc2)cc1)NCc1ccc(O)cc1: Criterion not met
- N/C(=N\N=C\c1csc2ccccc12)NCc1ccc(Cl)c(Cl)c1: Criterion not met

API: above_or_equal(metric=inhibition at 1 µM, cutoff=30%) for item `COC(=O)c1ccc(CN/C(N)=N/N=C/c2cc3ccccc3s2)cc1`
Criterion met

API: above_or_equal(metric=inhibition at 1 µM, cutoff=30%) for item `N/C(=N\N=C\c1cc2ccccc2o1)NCc1ccccc1`
Criterion met

API: above_or_equal(metric=inhibition at 1 µM, cutoff=30%) for item `COC(=O)c1ccc(CN/C(N)=N/N=C/c2csc3ccccc23)cc1`
Criterion not met

====

Test system: Melanoderms™
Experiment: Pigment production by Living Skin Equivalents (Melanoderms)
Format: cell-based
Details: Homo sapiens, 336 h; 10 µM; 14 days; normalized to protein levels; read-out: Inhibition of melanin production (%) in Melanoderms™ compared to control
measured.metric: inhibition at 10 µM (%)
Field: numeric (%). Do not append units.

# count of solved cases: 5
* COC(=O)c1ccc(CN/C(N)=N/N=C/c2ccc3ccccc3n2)cc1 | 19
* COC(=O)c1ccc(CN/C(N)=N/N=C/c2csc3ccccc23)cc1 | 19
* COc1ccc(CN/C(N)=N/N=C/c2cc3ccccc3o2)cc1 | 40
* N/C(=N\N=C\c1csc2ccccc12)NCc1ccc(F)cc1 | 20
* N/C(=N\N=C\c1cc2ccccc2o1)NCc1ccccc1 | 47

Give measured inhibition at 10 µM for `N/C(=N\N=C\c1ccc(-c2ccncc2)cc1)NCc1ccc(O)cc1` (Melanoderms™).
53

Give measured inhibition at 10 µM for `COC(=O)c1ccc(CN/C(N)=N/N=C/c2cc3ccccc3s2)cc1` (Melanoderms™).
31

====

System: Melanoderms™
Experiment: Pigment production by Living Skin Equivalents (Melanoderms)
Assay type: cell-based
Conditions: Homo sapiens, 336 h; 5 µM; 14 days; normalized to protein levels; read-out: Inhibition of melanin production (%) in Melanoderms™ compared to control
Method: So called reconstructed pigmented 'skin' cultures containing keratinocytes and melanocytes are commercially available and for example can be purchased from MatTek Corp, 200, Homer Avenue, Ashland, MA, USA, under the trade name Melanoderm™. […] The cell viability of the cultures was assessed using the so called WST-1 (Water Soluble Tetrazolium Salt -1) assay purchased from Roche Applied Science and following the manufacturer's instructions. […]
measured.metric: inhibition at 5 µM (%)
Field: numeric (%). Do not append units.

# count of solved cases: 5
• N/C(=N\N=C\c1cc2ccccc2o1)NCc1ccccc1 [NC-0519] = 40
• N/C(=N\N=C\c1csc2ccccc12)NCc1ccc(F)cc1 [NC-0517] = 4
• COC(=O)c1ccc(CN/C(N)=N/N=C/c2csc3ccccc23)cc1 [NC-0510] = 18
• COC(=O)c1ccc(CN/C(N)=N/N=C/c2cc3ccccc3s2)cc1 [NC-0522] = 34
• COC(=O)c1ccc(CN/C(N)=N/N=C/c2ccc3ccccc3n2)cc1 [NC-0511] = 27

Please look at this molecule and report its inhibition at 5 µM: COC(=O)c1ccc(CN/C(N)=N/N=C/c2cc3ccccc3o2)cc1 [NC-0521]
35

Please look at this molecule and report its inhibition at 5 µM: COc1ccc(CN/C(N)=N/N=C/c2cc3ccccc3o2)cc1 [NC-0531]
35

====

Tested on: B16 mouse melanoma cells
Experiment: Inhibition of pigment (melanin) production in B16 mouse melanoma cells
Assay type: cell-based
Conditions: 72 h, 1 µM, 3 days incubation, average of 4 wells, read-out: % of melanin inhibition in B16 mouse melanoma cells assay compared to control, normalised to protein levels
Method: B16 mouse melanoma cells are widely available for example by purchase from the American Type Culture Collection (ATCC) and are routinely used by those skilled in the art to assay pigment production. […] The plates were incubated overnight at 37°C/5 % CO2 atmosphere. […] Cultures were assessed for melanin secretion into the medium and, as controls for toxicity of the added ingredients, for protein level and metabolic activity. […]
Quick rule: inhibition at 1 µM of at least 50% means Satisfied, below that means Not satisfied.

- COc1ccc(CN/C(N)=N/N=C/c2csc3ccccc23)cc1 [NC-0528]: Not satisfied
- COC(=O)c1ccc(CN/C(N)=N/N=C/c2cc3ccccc3o2)cc1 [NC-0521]: Not satisfied
- COC(=O)c1ccc(CN/C(N)=N/N=C/c2ccc3ccccc3n2)cc1 [NC-0511]: Satisfied

API: above_or_equal(metric=inhibition at 1 µM, cutoff=50%) for item COC(=O)c1cccc(CN/C(N)=N/N=C/c2csc3ccccc23)c1 [NC-0525]
Not satisfied
